tested on: CCRF-CEM leukemia; test: NCI-60 one-dose screen, 48 h (100 = growth as untreated, 0 = no growth, -100 = all killed); conditions: 10 µM unless noted
Compounds without any hit were thinned out: in the full panel of roughly 83,000, 20% have a hit.

Compound: COc1cccc(-c2nc(SCC(=O)Nc3ccc(C(=O)/C=C/c4ccc(OC)c(OC)c4)cc3)[nH]c(=O)c2C#N)c1
Reading unit: %
growth: 90
--
Compound: c1ccc(-c2cc3n4c(-c5ccccc5)nn(-c5ccccc5)c4cnc-3n2)cc1
Reading unit: %
growth: 86.4
--
Compound: COc1cc(-c2nn(-c3ccc(C(=O)O)cc3)cc2C(=O)O)ccc1O
Reading unit: %
growth: 67.9
--
Compound: CON1C(=O)CC[C@]2(C)[C@H]3CC[C@@H]4C([C@@]5(C)CCC(=O)O5)CC[C@@]4(C)[C@]3(C)CC[C@H]2C1(C)C (some centres undefined)
Reading unit: %
growth: 96.9
--
Compound: CSc1nc(NCCN2CCOCC2)c(C#N)c(-c2cccc([N+](=O)[O-])c2)n1
Reading unit: %
growth: 102
--
Compound: CN1C(=O)C2(SCC(C(=O)NCc3ccccc3)N2C(=O)C2CCCCC2)c2ccccc21 (centres undefined)
Reading unit: %
growth: 102
--
Compound: O=C(NCCN1CCOCC1)Nc1ccc(-c2cc3c(Nc4ccc(Oc5cccc(C(F)(F)F)c5)c(Cl)c4)ncnc3s2)cc1
Reading unit: %
growth: 3.33
--
Compound: C=C1c2nc3ccccc3n2C=C(c2ccc(OC)cc2)N1Cc1ccccc1
Reading unit: %
growth: 78.9
--
Compound: Cn1cccc1-c1nc2c3c(ccc2[nH]1)C(=O)c1ccccc1C3=O
Reading unit: %
growth: 78.9

---

system: ACHN renal; assay: NCI-60 one-dose screen, 48 h; conditions: 10 µM unless noted
Compounds without any hit were thinned out: in the full panel of roughly 83,000, 20% have a hit. The source made the active and inactive calls. How the source made its calls: active means growth percent below 10; inactive means the rest.
Labels: active, inactive

Compound: Cc1cc(N2CCN(c3ccnc4cc(Cl)ccc34)CC2)nc(N2CCOCC2)n1
Qualitative label: inactive

Compound: OC(COc1cccc2ccccc12)CN1CCN(c2ccccc2Cl)CC1 (stereo not given)
Qualitative label: inactive

Compound: Clc1ccc2c(NCCNc3nc(N4CCCCC4)nc4ccccc34)ccnc2c1
Qualitative label: active

Compound: Cn1cc(C(=O)c2nc(-c3c[nH]c4ccc(Br)cc34)no2)c2cc(F)ccc21
Qualitative label: inactive

Compound: COc1ccc(C(=O)COc2ccc(/C=C3\Oc4ccc(OC)cc4C3=O)cc2)cc1
Qualitative label: inactive

Compound: CCOc1nc(-c2ccccc2)cc2c(O)c(C(=O)O)[nH]c(=O)c12
Qualitative label: inactive

Compound: Cn1c(=O)[nH]c(=O)c2nc(CCC(=O)NCCC(=O)O)c(=O)[nH]c21
Qualitative label: inactive

Compound: COc1ccc(C(=O)COc2cccc(/C=C3\CSc4ccccc4C3=O)c2)cc1
Qualitative label: active

Compound: Cc1cc(C)c2nc3nc(C)cc(C)c3c(N)c2c1
Qualitative label: active

Compound: COc1cc(C(=O)Oc2ccccc2OC(=O)c2cc(OC)c(OC)c(OC)c2)cc(OC)c1OC
Qualitative label: inactive

---

system: HT29 colon; test: NCI-60 one-dose screen, 48 h; conditions: 10 µM unless noted
About 83,000 compounds went through this panel and 20% of them were active in at least one assay; those are over-represented in the sample as a whole. Calls of active or inactive are those of the source. The calls were made as follows: active = growth percent below 10; inactive = the rest.
Labels: active, inactive

Compound: O=C(CCl)Oc1ccc(-c2ccccc2)c(Br)c1
Qualitative label: inactive
//
Compound: Cn1cc(-c2nonc2-c2cn(C)c3ccc(F)cc23)c2cc(F)ccc21
Qualitative label: inactive
//
Compound: CC(=O)c1nc2ccccc2n1CC(=O)c1cccc(Cl)c1
Qualitative label: inactive
//
Compound: CC/C=C\C/C=C\C[C@H]1C/C=C2/C(=O)C=C[C@@H]2C/C=C\CCC(=O)O1
Qualitative label: active
//
Compound: NCCNc1nc(Nc2ccc(-c3nc4ccccc4[nH]3)cc2)c2cn[nH]c2n1
Qualitative label: inactive
//
Compound: FC(F)(F)c1[nH]ncc1-c1nc2ccc3n[nH]c(C#Cc4cccnc4)c3c2c2c1CCCC2
Qualitative label: inactive
//
Compound: CC(O)CN(CC(C)O)c1ccc2c(c1)Cc1cc([N+](=O)[O-])ccc1-2 (stereo not given)
Qualitative label: inactive
//
Compound: Cc1cc(C)nc(SC2=C(Nc3cc(Cl)ccc3O)C(=O)N(Cc3ccccc3)C2=O)n1
Qualitative label: inactive
//
Compound: O=C(Cc1ccc(/C=C/C(=O)c2ncc[nH]2)cc1)Nc1ccc(F)cc1
Qualitative label: active
//
Compound: CCOc1cc2ncc(C#N)c(Nc3ccc(OCc4cccc(F)c4)c(Cl)c3)c2cc1NC(=O)CCCCC1CCSS1 (stereo not given)
Qualitative label: inactive
//
Compound: CCC([N+](=O)[O-])S(=O)(=O)c1ccc(C)cc1 (stereo not given)
Qualitative label: inactive
//
Compound: COc1ccc(/C=N/C2=C(C#N)C(c3ccc(N(C)C)cc3)c3ccc4ccccc4c3O2)cc1 (stereo not given)
Qualitative label: inactive
//
Compound: CC(=O)O[C@H]1CC[C@]2(C)[C@H]3CC=C4[C@@H]5CC(C)(C)CC[C@]5(C(=O)NCCNCCNCCN)CC[C@@]4(C)[C@]3(C)CC[C@H]2C1(C)C
Qualitative label: active
//
Compound: COc1cccc(-c2nc3sccn3c2-c2ccnc(NCCCNS(=O)(=O)c3cccc(Cl)c3)c2)c1
Qualitative label: inactive
//
Compound: O=C1/C(=C/N2N=C(c3ccc4ccccc4c3)CC2c2ccccc2O)SC(=S)N1c1cccnc1 (stereo not given)
Qualitative label: inactive
//
Compound: COc1ccc(SC2c3ccc(C)cc3Oc3nc(N)c(C#N)c(N)c32)cc1 (stereo not given)
Qualitative label: active
//
Compound: COc1cc(C2CC(=O)c3ccccc3N2)cc(OC)c1OC (stereo not given)
Qualitative label: inactive
//
Compound: O=c1c(F)cn(Cc2ccccc2CCl)c(=O)n1Cc1ccccc1CCl
Qualitative label: active
//
Compound: CCOc1ccc(C(C)=O)cc1NC(=O)c1cccc(-c2nnn(CC)n2)c1
Qualitative label: active
//
Compound: C#CCOc1ccc2ncnc(Nc3cccc(CNC(=O)CCl)c3)c2c1
Qualitative label: inactive
